Test system: symmetric dimethylation of arginine (SDMA) of PRMT5 substrates in MCF-7 cells
experimental protocol: PRMT5 Cell Target Engagement (TE) Assay
Format: cell-based
cond: Homo sapiens, MCF7, 72 h; MCF-7 cells treated for 3 days; nuclear SDMA by high content imaging; top concentration 10000 nM
assay metric: pEC50
# pEC50: negative log10 of molar concentration; output just the value

The examples below pair each entry with its known result.
> print(dat)
                                   compound  assay.metric  result.number
1  Cc1ncnc2c1ccn2[C@@H]1O[C@@H]2[C@@H](Nc3ccc4cc(F)c(N)nc4c3)CC[C@]2(O)[C@H]1O         pEC50           8.70
2  Nc1nc2cc(C[C@@H]3CC[C@@]4(O)[C@@H]3O[C@@H](n3ccc5c(N)ncnc53)[C@@H]4O)ccc2cc1C(F)(F)F         pEC50           8.07
3  Cc1ncnc2c1ccn2[C@@H]1O[C@@H]2[C@H](Cc3ccc4cc(Cl)c(N)nc4c3)CC[C@]2(O)[C@H]1O         pEC50           8.60

Problem: Returns the measured pEC50 for the input compound. Input: `Nc1nc2cc(O[C@H]3CC[C@@]4(O)[C@@H]3O[C@@H](n3ccc5cncnc53)[C@@H]4O)ccc2cc1Br`
Result: 7.49

Problem: Request: Nc1nc2cc(CC3OC[C@@]4(O)C3C[C@@H](n3ccc5c(N)ncnc53)[C@@H]4O)ccc2cc1Br (some centres unmarked)
Result: 6.63

Problem: Request: `Cc1cc2ccc(C[C@@H]3CC[C@@]4(O)[C@@H]3O[C@@H](n3ccc5c(N)ncnc53)[C@@H]4O)cc2nc1N`
Result: 9.15

Problem: Request: `Cc1ncnc2c1ccn2[C@@H]1C[C@@H]2[C@@H](Cc3ccc4cc(F)c(N)nc4c3)CC[C@]2(O)[C@H]1O`
Result: 7.97

Problem: Request: `Cc1ncnc2c1ccn2[C@@H]1O[C@@H]2[C@H](Cc3cnc4cc(F)c(N)nc4c3)CC[C@]2(O)[C@H]1O`
Result: 6.59

###

Reported pEC50 values for the following compounds.
Tested on: symmetric dimethylation of arginine (SDMA) of PRMT5 substrates in MCF-7 cells
experimental protocol: PRMT5 Cell Target Engagement (TE) Assay
Format: cell-based
cond: Homo sapiens, MCF7, 72 h; MCF-7 cells treated for 3 days; nuclear SDMA by high content imaging; top concentration 10000 nM
# pEC50: negative log10 of molar concentration; output just the value

The examples below pair each entry with its known result.
> print(dat)
                                   compound                             target.entity  result.number
1  Cc1cn([C@@H]2C[C@@H]3[C@H](Cc4cc(F)c5cc(Cl)c(N)nc5c4)CC[C@]3(O)[C@H]2O)c2ncnc(N)c12  symmetric dimethylation of arginine (SDMA) of PRMT5 substrates in MCF-7 cells           8.85
2  Cc1cn([C@@H]2C[C@@H]3[C@H](Cc4cc(F)c5cc(F)c(N)nc5c4)CC[C@]3(O)[C@H]2O)c2ncnc(N)c12  symmetric dimethylation of arginine (SDMA) of PRMT5 substrates in MCF-7 cells           9.10
3  Cc1cn([C@@H]2C[C@@H]3[C@H](Cc4ccc5cc(F)c(N)nc5c4)CC[C@]3(O)[C@H]2O)c2ncnc(N)c12  symmetric dimethylation of arginine (SDMA) of PRMT5 substrates in MCF-7 cells           9.22
4  Nc1nc2cc(O[C@H]3CC[C@@]4(O)[C@@H]3O[C@@H](n3ccc5c(N)ncnc53)[C@@H]4O)ccc2cc1Br  symmetric dimethylation of arginine (SDMA) of PRMT5 substrates in MCF-7 cells           8.92
5  Cc1cn([C@@H]2O[C@@H]3[C@H](Cc4ccc5cc(Br)c(N)nc5c4)OC[C@]3(O)[C@H]2O)c2ncnc(N)c12  symmetric dimethylation of arginine (SDMA) of PRMT5 substrates in MCF-7 cells           9.22

Problem: Returns the measured pEC50 for the input compound. Input: `Cc1ncnc2c1ccn2[C@@H]1O[C@@H]2[C@H](Cc3ccc4cc(C(F)F)c(N)nc4c3)CC[C@]2(O)[C@H]1O`
Result: 8.82

Problem: Request: `Cc1ncnc2c1ccn2[C@@H]1C[C@@H]2[C@H](Cc3ccc4cc(F)c(N)nc4c3)CC[C@]2(O)[C@H]1O`
Result: 9.05

Problem: Request: `Cc1cc2ccc(OC[C@H]3C[C@@H](n4ccc5c(C)ncnc54)[C@H](O)[C@]3(C)O)cc2nc1N`
Result: 9.30

Problem: Request: `Cc1ncnc2c1ccn2[C@@H]1C[C@](C)(CCc2ccc3cc(Br)c(N)nc3c2)[C@@H](O)[C@H]1O`
Result: 8.23

Problem: Request: `Nc1nc2cc(C[C@@H]3CC[C@@]4(O)[C@@H]3O[C@@H](n3cc(F)c5c(N)ncnc53)[C@@H]4O)ccc2cc1Cl`
Result: 8.96

Problem: Request: `Nc1nc2cc(O[C@H]3CC[C@@]4(O)[C@@H]3O[C@@H](n3cc(F)c5c(N)ncnc53)[C@@H]4O)ccc2cc1Cl`
Result: 9.00

Problem: Request: `Nc1nc2cc(C[C@@H]3CC[C@@]4(O)[C@@H]3O[C@@H](n3cc(C(F)F)c5c(N)ncnc53)[C@@H]4O)ccc2cc1F`
Result: 8.55

Problem: Request: `C[C@@]1(O)[C@@H](COc2ccc3cc(Br)c(N)nc3c2)C[C@@H](n2ccc3c(N)ncnc32)[C@@H]1O`
Result: 9.15

Problem: Request: `CNc1ncnc2c1ccn2[C@@H]1O[C@@H]2[C@H](Cc3ccc4cc(F)c(N)nc4c3)CC[C@]2(O)[C@H]1O`
Result: 7.33

Problem: Request: `Cc1ncnc2c1ccn2[C@@H]1O[C@@H]2[C@H](Cc3ccc4cc(C(F)(F)F)c(N)nc4c3)CC[C@]2(O)[C@H]1O`
Result: 7.60

Problem: Request: `Nc1nc2cc(C[C@@H]3CC[C@@]4(O)[C@@H]3O[C@@H](n3ccc5c(N)ncnc53)[C@@H]4O)ccc2cc1Br`
Result: 8.89

Problem: Request: `Nc1nc2cc(O[C@H]3CC[C@@]4(O)[C@@H]3O[C@@H](n3ccc5c(CO)ncnc53)[C@@H]4O)ccc2cc1Br`
Result: 6.73

Problem: Request: `Cc1ncnc2c1ccn2[C@@H]1O[C@@H]2[C@H](Cc3ccc4cc(F)c(N)nc4c3)CC[C@]2(O)[C@H]1O`
Result: 7.88

Problem: Request: Cc1cn([C@@H]2O[C@@H]3[C@H](Cc4ccc5cc(Br)c(N)nc5c4)CC[C@]3(O)[C@H]2O)c2ncnc(N)c12 [Example 70, 2,2,2-trifluoroacetate]
Result: 9.00

Problem: Request: `Cc1nc(N)c2ccn([C@@H]3O[C@@H]4[C@H](Cc5ccc6cc(Br)c(N)nc6c5)CC[C@]4(O)[C@H]3O)c2n1`
Result: 8.49

Problem: Request: `Nc1nc2cc(C[C@@H]3CC[C@@]4(O)[C@@H]3O[C@@H](n3cc(F)c5c(N)ncnc53)[C@@H]4O)cc(F)c2cc1F`
Result: 8.89

###

Test system: symmetric dimethylation of arginine (SDMA) of PRMT5 substrates in MCF-7 cells
experimental protocol: PRMT5 Cell Target Engagement (TE) Assay
Type: cell-based
cond: Homo sapiens, MCF7, 72 h; MCF-7 cells treated for 3 days; nuclear SDMA by high content imaging; top concentration 10000 nM
Source text: PRMT5 Cell Target Engagement (TE) Assay The PRMT5 TE assay is a biomarker assay for identifying compounds that inhibit symmetric dimethylation of arginine (SDMA) of PRMT5 substrates. The following substrates have been reported for PRMT5: Histone H2A and H4 R3, Histone H3 R2, Histone 1-13 R8, spliceosome Sm proteins, ribosomal protein RPS10, p53, FEN1, nucleoplasmin, nucleolin, EGFR and EBNA. […]
Reported pEC50 values for the following molecules.
# pEC50: negative log10 of molar concentration; output just the value

The examples below pair each entry with its known result.
> print(dat)
                                   molecule  result.number
1  Nc1nc2cc(O[C@H]3CC[C@@]4(O)[C@@H]3O[C@@H](n3cc(-c5ccccc5)c5c(N)ncnc53)[C@@H]4O)ccc2cc1Br [Example 49]           7.89
2  Cc1ncnc2c1ccn2[C@@H]1O[C@@H]2[C@@H](Oc3ccc4ccc(N)nc4c3)CC[C@]2(O)[C@H]1O [Example 113]           8.74
3  Cc1ncnc2c1ccn2[C@@H]1O[C@@H]2[C@H](Cc3ccc4cc(Br)c(N)nc4c3)OC[C@]2(O)[C@H]1O [Example 133]           8.57
4  Cc1ncnc2c1ccn2[C@@H]1O[C@@H]2[C@@H](Oc3ccc4cc5c(nc4c3)NCC5)CC[C@]2(O)[C@H]1O [Example 89]           8.36
5  Nc1nc2cc(C[C@@H]3CC[C@@]4(O)[C@@H]3C[C@@H](n3cc(F)c5c(N)ncnc53)[C@@H]4O)cc(F)c2cc1F [Example 30]           9.10

Problem: Returns the measured pEC50 for the input molecule. Input: C[C@@]1(O)[C@@H](CCc2ccc3cc(Br)c(N)nc3c2)O[C@@H](n2ccc3c(N)ncnc32)[C@@H]1O [Example 14]
Result: 7.77

Problem: Request: Cc1nc(N)c2ccn([C@@H]3O[C@@H]4[C@@H](Oc5ccc6cc(Br)c(N)nc6c5)CC[C@]4(O)[C@H]3O)c2n1 [Example 63]
Result: 8.25

Problem: Request: CNc1ncnc2c1ccn2[C@@H]1C[C@@H]2[C@H](Cc3ccc4cc(Br)c(N)nc4c3)CC[C@]2(O)[C@H]1O [Example 97]
Result: 8.89
